Tested on: Rattus norvegicus
method_notes: Drug discrimination effect of compound in rats, expressed as percent of rats choosing the cocaine lever at dose 1.7 mg/kg (ip)
Format: functional
# reported Drug discrimination effect; entries follow
Quick reminder: number only, in %, skip the unit.

See these solved cases before continuing.
[[record]]
compound = "Cc1ccc(C2CC3CCC(C2c2cc(-c4ccc(F)cc4)no2)N3C)cc1 (centres undefined)"
measure_unit = "%"
result_number = 0

[[record]]
compound = "CCc1cc(C2C(c3ccc(C)cc3)CC3CCC2N3C)on1 (centres undefined)"
measure_unit = "%"
result_number = 100


Given the compound CC(C)c1cc(C2C(c3ccc(Cl)cc3)CC3CCC2N3C)on1 (centres undefined) , what is its reported Drug discrimination effect? 25

Same question, COC(=O)[C@@H]1C2CC[C@@H](C[C@@H]1OC(=O)c1ccccc1)N2C (single isomer, unassigned) this time 32

====

Entries annotated with measured pIC50
tgt: Norepinephrine transporter (Rattus norvegicus, UniProt Q9WTR4)
Sequence (Q9WTR4 whole entry): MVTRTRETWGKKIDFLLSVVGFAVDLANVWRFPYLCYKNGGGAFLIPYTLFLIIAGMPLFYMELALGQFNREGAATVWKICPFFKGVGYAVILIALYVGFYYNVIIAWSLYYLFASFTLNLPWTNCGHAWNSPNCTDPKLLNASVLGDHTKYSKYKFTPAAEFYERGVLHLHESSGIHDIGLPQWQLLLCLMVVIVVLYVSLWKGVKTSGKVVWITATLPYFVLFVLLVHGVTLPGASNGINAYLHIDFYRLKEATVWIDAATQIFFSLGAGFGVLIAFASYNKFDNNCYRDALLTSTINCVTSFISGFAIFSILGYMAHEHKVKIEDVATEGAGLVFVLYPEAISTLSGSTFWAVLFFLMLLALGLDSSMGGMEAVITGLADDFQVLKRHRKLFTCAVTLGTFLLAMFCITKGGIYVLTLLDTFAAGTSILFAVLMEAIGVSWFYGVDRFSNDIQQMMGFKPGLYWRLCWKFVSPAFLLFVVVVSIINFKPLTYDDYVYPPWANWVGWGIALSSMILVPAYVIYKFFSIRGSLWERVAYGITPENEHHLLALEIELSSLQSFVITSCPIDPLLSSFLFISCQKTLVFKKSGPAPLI
method_notes: Inhibition of norepinephrine transporter (NET) determined using [3H]nisoxetine radioligand.
pIC50 here: minus log base 10 of the concentration, concentration in moles per litre.

[[record]]
compound = "Cc1ccc(C2CC3CCC(C2c2cc(C(C)C)no2)N3C)cc1 (stereo not given)"
tgt = "Norepinephrine transporter (Rattus norvegicus, UniProt Q9WTR4)"
measured_quantity = "pIC50"
result_number = 5.60

[[record]]
compound = "Cc1ccc(C2CC3CCC(C2c2cc(-c4ccc(Cl)cc4)no2)N3C)cc1 (stereo not given)"
tgt = "Norepinephrine transporter (Rattus norvegicus, UniProt Q9WTR4)"
measured_quantity = "pIC50"
result_number = 5.16

[[record]]
compound = "CN1C2CCC1C(c1cc(-c3ccc(Cl)cc3)no1)C(c1ccc(Cl)cc1)C2 (stereo not given)"
tgt = "Norepinephrine transporter (Rattus norvegicus, UniProt Q9WTR4)"
measured_quantity = "pIC50"
result_number = 5.28

[[record]]
compound = "CCc1cc(C2C(c3ccc(Cl)cc3)CC3CCC2N3C)on1 (stereo not given)"
tgt = "Norepinephrine transporter (Rattus norvegicus, UniProt Q9WTR4)"
measured_quantity = "pIC50"
result_number = 6.92

[[record]]
compound = "Cc1ccc(C2CC3CCC(C2c2cc(C)no2)N3C)cc1 (stereo not given)"
tgt = "Norepinephrine transporter (Rattus norvegicus, UniProt Q9WTR4)"
measured_quantity = "pIC50"
result_number = 6.60


Data request, read-out pIC50, for CN1C2CCC1C(c1cc(-c3ccc(F)cc3)no1)C(c1ccc(Cl)cc1)C2 (stereo not given) 6.04

Repeat for the following compound: Cc1ccc(C2CC3CCC(C2c2cc(C(C)(C)C)no2)N3C)cc1 (stereo not given) 5.48

Another: Cc1ccc(C2CC3CCC(C2C(=O)OC(C)C)N3C)cc1 (stereo not given) 5.22

Same read-out for COc1ccc(-c2cc(C3C(c4ccc(Cl)cc4)CC4CCC3N4C)on2)cc1 (stereo not given) ? 6.12

What do we get for Cc1cc(C2C(c3ccc(Cl)cc3)CC3CCC2N3C)on1 (stereo not given) ? 6.74

====

tgt: Sodium-dependent serotonin transporter (Rattus norvegicus, UniProt P31652)
Sequence (P31652 whole entry): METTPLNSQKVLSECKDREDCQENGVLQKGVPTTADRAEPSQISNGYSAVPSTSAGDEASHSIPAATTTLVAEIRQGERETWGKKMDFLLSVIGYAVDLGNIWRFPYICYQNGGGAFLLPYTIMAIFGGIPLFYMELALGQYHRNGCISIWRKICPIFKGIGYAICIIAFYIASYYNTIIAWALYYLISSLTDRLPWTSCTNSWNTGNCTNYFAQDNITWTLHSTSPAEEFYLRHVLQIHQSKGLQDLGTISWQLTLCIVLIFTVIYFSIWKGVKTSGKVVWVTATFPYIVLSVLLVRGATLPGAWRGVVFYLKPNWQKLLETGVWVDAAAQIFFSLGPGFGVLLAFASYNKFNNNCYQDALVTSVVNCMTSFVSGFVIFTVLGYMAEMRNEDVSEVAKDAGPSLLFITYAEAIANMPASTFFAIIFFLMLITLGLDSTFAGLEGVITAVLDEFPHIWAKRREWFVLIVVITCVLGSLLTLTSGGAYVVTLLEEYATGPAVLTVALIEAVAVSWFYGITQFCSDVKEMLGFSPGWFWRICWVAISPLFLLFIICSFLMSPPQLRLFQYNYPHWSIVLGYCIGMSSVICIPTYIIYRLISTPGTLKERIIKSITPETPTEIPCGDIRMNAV
measured_quantity: IC50 (µM)
Kindly answer with a numeric value in µM, unit omitted.

// below: answered compounds
[[record]]
compound = "CN1C2CCC1C(c1ccno1)C(c1ccc(Cl)cc1)C2 (stereo unspecified)"
measured_quantity = "IC50"
result_number = 0.091

[[record]]
compound = "Cc1ccc(C2CC3CCC(C2c2ccno2)N3C)cc1 (stereo unspecified)"
measured_quantity = "IC50"
result_number = 0.414

[[record]]
compound = "COc1ccc(-c2cc(C3C(c4ccc(C)cc4)CC4CCC3N4C)on2)cc1 (stereo unspecified)"
measured_quantity = "IC50"
result_number = 4.03


Entry CCc1cc(C2C(c3ccc(C)cc3)CC3CCC2N3C)on1 (stereo unspecified) : reported IC50 = ? 6.4

What about COc1ccc(-c2cc(C3C(c4ccc(Cl)cc4)CC4CCC3N4C)on2)cc1 (stereo unspecified) ? 5.88

Check CC(C)c1cc(C2C(c3ccc(Cl)cc3)CC3CCC2N3C)on1 (stereo unspecified) too. 2.32

Next entry: CN1C2CCC1C(c1cc(C(C)(C)C)no1)C(c1ccc(Cl)cc1)C2 (stereo unspecified) 36.8

Same again, this time with Cc1ccc(C2CC3CCC(C2c2cc(C(C)C)no2)N3C)cc1 (stereo unspecified) 42.9

What do you have for Cc1ccc(C2CC3CCC(C2C(=O)OC(C)C)N3C)cc1 (stereo unspecified) ? 1.93
